- test.name: Oral bioavailability in Beagle Marshall dog at 1 mg/kg administered as single dose
- Assay type: ADME, organism-based, Canis lupus familiaris
- condition.info: in vivo

| line.notation | bioavailability / % |
| --- | --- |
| CN(C)CCn1c(CC(C)(C)C)nc2cc(S(=O)(=O)C3CN(CCO)C3)ccc21 | 72 |

* * *

- test.name: AUC (infinity) in Beagle Marshall dog at 1 mg/kg, po administered as single dose
- Type: ADME, organism-based, Canis lupus familiaris
- Parameters: time infinity, dose 1 mg/kg, route oral
- condition.info: plasma

| line.notation | units | AUC(0-inf) |
| --- | --- | --- |
| CN(C)CCn1c(CC(C)(C)C)nc2cc(S(=O)(=O)C3CN(CCO)C3)ccc21 | ng·h/mL | 1000 |
